tested on: Echinochloa crus-galli (ECHCG); experiment: Pre-emergence herbicidal glasshouse test, ECHCG; format: in vivo; settings: 125 g/h, evaluated after 13 days, five-point scale
RESULT TYPE: percentage damage caused to the plant, PRE Application ECHCG

>  <SMILES REPR>
CCOC(=O)Nc1c(OC(F)(F)F)ccc(C(=O)Nc2nnnn2C)c1C

>  <MEASUREMENT>
5 (5=80-100%)

$$$$
>  <SMILES REPR>
Cn1nnnc1NC(=O)c1ccc(OC(F)(F)F)c(NC(=O)OCCC#N)c1Cl

>  <MEASUREMENT>
5 (5=80-100%)

$$$$
>  <SMILES REPR>
Cn1nnnc1NC(=O)c1ccc(OC(F)F)c(NC(=O)OCCS(C)(=O)=O)c1Cl

>  <MEASUREMENT>
3 (3=40-59%)

$$$$
>  <SMILES REPR>
Cn1nnnc1NC(=O)c1ccc(OC(F)(F)F)c(NC(=O)OC2CCOCC2)c1Cl

>  <MEASUREMENT>
5 (5=80-100%)

$$$$
>  <SMILES REPR>
Cn1nnnc1NC(=O)c1ccc(OC(F)F)c(NC(=O)OCC(F)F)c1Cl

>  <MEASUREMENT>
5 (5=80-100%)

$$$$
>  <SMILES REPR>
COC(=O)Nc1c(OC(F)F)ccc(C(=O)Nc2nnnn2C)c1Cl

>  <MEASUREMENT>
5 (5=80-100%)

$$$$
>  <SMILES REPR>
COCCOC(=O)Nc1c(OC(F)F)ccc(C(=O)Nc2nnnn2C)c1Cl

>  <MEASUREMENT>
4 (4=60-79%)

$$$$
>  <SMILES REPR>
CCCOC(=O)Nc1c(OC(F)F)ccc(C(=O)Nc2nnnn2C)c1Cl

>  <MEASUREMENT>
4 (4=60-79%)

$$$$
>  <SMILES REPR>
COC(=O)Nc1c(OC(F)(F)F)ccc(C(=O)Nc2nnnn2C)c1C

>  <MEASUREMENT>
5 (5=80-100%)

$$$$
>  <SMILES REPR>
Cn1nnnc1NC(=O)c1ccc(OC(F)F)c(N2CCOC2=O)c1Cl

>  <MEASUREMENT>
5 (5=80-100%)

$$$$
>  <SMILES REPR>
CC(=O)N1CCC(OC(=O)Nc2c(OC(F)(F)F)ccc(C(=O)Nc3nnnn3C)c2Cl)CC1

>  <MEASUREMENT>
1 (1=0-19%)

$$$$
>  <SMILES REPR>
CCn1nnnc1NC(=O)c1ccc(OC(F)F)c(NC(=O)OC)c1Cl

>  <MEASUREMENT>
3 (3=40-59%)

$$$$
>  <SMILES REPR>
CCOC(=O)Nc1c(OC(F)F)ccc(C(=O)Nc2nnnn2CC)c1Cl

>  <MEASUREMENT>
4 (4=60-79%)

$$$$
>  <SMILES REPR>
COCCOC(=O)Nc1c(OC(F)(F)F)ccc(C(=O)Nc2nnnn2C)c1Cl

>  <MEASUREMENT>
5 (5=80-100%)

$$$$
>  <SMILES REPR>
CCOC(=O)N(CC)c1c(OC(F)(F)F)ccc(C(=O)Nc2nnnn2C)c1Cl

>  <MEASUREMENT>
5 (5=80-100%)

$$$$
>  <SMILES REPR>
Cn1nnnc1NC(=O)c1ccc(OC(F)F)c(NC(=O)OC2CCOCC2)c1Cl

>  <MEASUREMENT>
4 (4=60-79%)

$$$$
>  <SMILES REPR>
CCOC(=O)Nc1c(OC(F)F)ccc(C(=O)Nc2nnnn2C)c1Cl

>  <MEASUREMENT>
5 (5=80-100%)

$$$$
>  <SMILES REPR>
CCCOC(=O)Nc1c(OC(F)(F)F)ccc(C(=O)Nc2nnnn2C)c1Cl

>  <MEASUREMENT>
4 (4=60-79%)

$$$$
>  <SMILES REPR>
COCCCOC(=O)Nc1c(OC(F)(F)F)ccc(C(=O)Nc2nnnn2C)c1Cl

>  <MEASUREMENT>
5 (5=80-100%)

$$$$
>  <SMILES REPR>
Cn1nnnc1NC(=O)c1ccc(OC(F)F)c(NC(=O)OCCC#N)c1Cl

>  <MEASUREMENT>
4 (4=60-79%)

$$$$
>  <SMILES REPR>
CCN(C(=O)OC)c1c(OC(F)(F)F)ccc(C(=O)Nc2nnnn2C)c1Cl

>  <MEASUREMENT>
5 (5=80-100%)

$$$$
>  <SMILES REPR>
CCOC(=O)N(CC)c1c(OC(F)F)ccc(C(=O)Nc2nnnn2C)c1Cl

>  <MEASUREMENT>
5 (5=80-100%)

$$$$
>  <SMILES REPR>
CCOC(=O)Nc1c(OC(F)(F)F)ccc(C(=O)Nc2nnnn2C)c1Cl

>  <MEASUREMENT>
5 (5=80-100%)

$$$$

All figures here come from patent US12637437B2.
